Tested on: c-Abl (mouse);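 further: 11-residue human phosphosite peptides and single-mutation variants displayed on the E. coli surface, counted by deep sequencing, each peptide's frequency after selection divided by its frequency in the unselected input library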;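 further: frequency after pTyr selection over input frequency; kinase dosed for 20-30% of maximal phosphorylation in three min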
Test: phosphorylation enrichment, bacterial display (enrichment ratio); higher = better substrate or ligand; peptides without Tyr show the background

seq text: VTRLRYPVCFG [ITK_Y336]
tgt: c-Abl (mouse)
phosphorylation enrichment: 0.756
--
seq text: QDKDLYPCPGT [RLF_Y671_R668K]
tgt: c-Abl (mouse)
phosphorylation enrichment: 0.726
--
seq text: TESALYGCTVV [KIAA1804_Y724_L729V]
tgt: c-Abl (mouse)
phosphorylation enrichment: 0.888
--
seq text: WRGMPYGGRGD [TGM1_Y312_R307W]
tgt: c-Abl (mouse)
phosphorylation enrichment: 0.396
--
seq text: IRRWVYPLTPE [EIF2B5_Y319]
tgt: c-Abl (mouse)
phosphorylation enrichment: 0.464
--
seq text: TISPFYRQSLF [CRYAA_Y48_YF]
tgt: c-Abl (mouse)
phosphorylation enrichment: 0.49
--
seq text: TKQLTYEEQFL [PIK3C3_Y310_D314Y_YF]
tgt: c-Abl (mouse)
phosphorylation enrichment: 0.661
--
seq text: VLTSTYRGGGG [HBA1_Y141_K140T]
tgt: c-Abl (mouse)
phosphorylation enrichment: 0.425
--
seq text: SNNYIYTTLGV [FAM83B_Y639_K640T]
tgt: c-Abl (mouse)
phosphorylation enrichment: 2.88
--
seq text: IRTIDYRFTVC [IDS_Y497_W502C_YF]
tgt: c-Abl (mouse)
phosphorylation enrichment: 0.952
--
seq text: LNSFIYSLRNR [OR1A1_Y288_P285S]
tgt: c-Abl (mouse)
phosphorylation enrichment: 0.866
--
seq text: SFGMVYEGNAR [INSR_Y1038]
tgt: c-Abl (mouse)
phosphorylation enrichment: 0.616
--
seq text: LAIERYVVVCK [RHO_Y136]
tgt: c-Abl (mouse)
phosphorylation enrichment: 1.51
--
seq text: SSSNPYSTVTV [ACTN2_Y599_M604V]
tgt: c-Abl (mouse)
phosphorylation enrichment: 0.567
